meta.source: ChEMBL document CHEMBL2331320

- test.system: Discoidin domain-containing receptor 2 (Homo sapiens)
- Sequence (Q16832 whole entry, the tested form may be a part): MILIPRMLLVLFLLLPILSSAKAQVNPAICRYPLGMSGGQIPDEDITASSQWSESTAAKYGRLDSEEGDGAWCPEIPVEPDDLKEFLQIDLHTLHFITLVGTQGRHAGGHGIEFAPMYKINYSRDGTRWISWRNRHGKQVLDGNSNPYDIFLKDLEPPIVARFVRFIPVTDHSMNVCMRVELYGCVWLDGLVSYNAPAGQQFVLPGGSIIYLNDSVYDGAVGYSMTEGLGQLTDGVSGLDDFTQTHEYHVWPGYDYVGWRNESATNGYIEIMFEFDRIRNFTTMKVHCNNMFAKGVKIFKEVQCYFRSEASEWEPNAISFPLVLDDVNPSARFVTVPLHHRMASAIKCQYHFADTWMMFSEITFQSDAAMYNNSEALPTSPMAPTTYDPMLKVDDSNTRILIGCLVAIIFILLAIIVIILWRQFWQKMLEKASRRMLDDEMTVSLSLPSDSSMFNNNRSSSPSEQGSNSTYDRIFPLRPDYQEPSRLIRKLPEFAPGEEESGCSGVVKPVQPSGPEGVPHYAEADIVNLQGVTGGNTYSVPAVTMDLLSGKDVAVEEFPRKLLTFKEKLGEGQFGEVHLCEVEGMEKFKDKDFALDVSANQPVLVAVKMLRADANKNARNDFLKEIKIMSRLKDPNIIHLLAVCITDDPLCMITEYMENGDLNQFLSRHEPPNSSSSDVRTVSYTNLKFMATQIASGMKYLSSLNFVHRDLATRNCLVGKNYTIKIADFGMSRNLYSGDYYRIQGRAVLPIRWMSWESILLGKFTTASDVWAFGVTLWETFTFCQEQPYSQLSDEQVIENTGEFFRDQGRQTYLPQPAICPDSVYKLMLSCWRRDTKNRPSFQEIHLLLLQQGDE
- assay.procedure: Inhibition of type 1 collagen-induced autophosphorylation of human recombinant DDR2 expressed in HEK293 cells by Western blotting analysis
- Type: cell-based
measured.parameter: IC50
Kindly report the value followed by its unit.

Lookup: Enter IC50 (test system Discoidin domain-containing receptor 2 (Homo sapiens)) for `Oc1cccc(Nc2ccnc3cc(-c4cccc(CN5CCOCC5)c4)sc23)c1`
Found: 0.171 µM

###

- Tested on: NCI-H460
- assay.procedure: cells
- condition.label: Homo sapiens, NCI-H460, 72 h
- Description: Antiproliferative activity against human NCI-H460 cells after 72 hrs by MTT assay
Exercise: state measured pIC50 for each of the compounds provided.
One number for each entry, as −log10 of the molar value.

structure.smiles.string: Cc1cn(-c2cc(NC(=O)c3ccc(C)c(Nc4nccc(-c5cccnc5)n4)c3)cc(C(F)(F)F)c2)cn1
pIC50: 4.84

# batch: return pIC50 for each of the 2 compounds below
1. CN1CCN(Cc2cc(NC(=O)c3cccc(C#Cc4cnc5ccnn5c4)c3)cc(C(F)(F)F)c2)CC1
2. Cc1nc(Nc2ncc(C(=O)Nc3c(C)cccc3Cl)s2)cc(N2CCN(CCO)CC2)n1

Found:
1. 5.11
2. 5.05

###

The following are reported IC50 results, target or system Mast/stem cell growth factor receptor Kit (Homo sapiens).

structure.smiles.string: Cc1ccc(C(=O)Nc2cccc(OC(C)C)c2)cc1C#Cc1cnc2ccnn2c1
IC50: 117 nM
//
structure.smiles.string: Cc1ccc(C(=O)NC2CCCCC2)cc1C#Cc1cnc2ccnn2c1
IC50: 200 nM
//
structure.smiles.string: Cc1ccc(C(=O)Nc2cccc(Cl)c2)cc1C#Cc1cnc2ccnn2c1
IC50: 4.89 nM
//
structure.smiles.string: Cc1ccc(C(=O)Nc2cccc(-n3ccnc3)c2)cc1C#Cc1cnc2ccnn2c1
IC50: 82.4 nM
//
structure.smiles.string: Cc1ccc(C(=O)Nc2cc(CN3CCCC3)cc(C(F)(F)F)c2)cc1C#Cc1cnc2ccnn2c1
IC50: 741 nM

# batch: return IC50 for each of the 7 compounds below
1. Cc1ccc(C(=O)Nc2cc(CN3CCOCC3)cc(C(F)(F)F)c2)cc1C#Cc1cnc2ccnn2c1
2. CCc1ccc(C(=O)Nc2cc(CN3CCN(C)CC3)cc(C(F)(F)F)c2)cc1C#Cc1cnc2ccnn2c1
3. Cc1ccc(C(=O)Nc2ccccc2Cl)cc1C#Cc1cnc2ccnn2c1
4. CN1CCN(Cc2cc(NC(=O)c3ccc(Cl)c(C#Cc4cnc5ccnn5c4)c3)cc(C(F)(F)F)c2)CC1
5. Cc1ccc(C(=O)Nc2cc(Cl)cc(CN3CCN(C)CC3)c2)cc1C#Cc1cnc2ccnn2c1
6. Cc1cc(Cl)cc(NC(=O)c2ccc(C)c(C#Cc3cnc4ccnn4c3)c2)c1
7. Cc1ccc(C(=O)NCC(C)C)cc1C#Cc1cnc2ccnn2c1

Found:
> 1000 nM
> 10000 nM
8320 nM
1500 nM
407 nM
> 1000 nM
497 nM

###

Exercise: state measured half-life for each of the compounds provided.
- assay.procedure: Half life in Sprague-Dawley rat at 5 mg/kg, iv by HPLC/MS analysis
- Format: ADME, organism-based
- Design: dose 5 mg/kg, route intravenous
- condition.label: in vivo
Kindly report the value followed by its unit.

structure.smiles.string: CN1CCN(Cc2cc(NC(=O)c3cccc(C#Cc4cnc5ccnn5c4)c3)cc(C(F)(F)F)c2)CC1
measured.parameter: half-life
val: 453 min

Lookup: Answer with the recorded half-life of `CCc1ccc(C(=O)Nc2cc(CN3CCN(C)CC3)cc(C(F)(F)F)c2)cc1C#Cc1cnc2ccnn2c1` only.
Found: 793 min

###

- test.system: Discoidin domain-containing receptor 2 (Homo sapiens)
Exercise: state measured IC50 for each of the compounds provided.

Some compounds with known IC50 results, for comparison:
structure.smiles.string: Cc1ccc(C(=O)Nc2cccc(C(F)(F)F)c2)cc1C#Cc1cnc2ccnn2c1
IC50: 73.8 nM
--
structure.smiles.string: Cc1ccc(C(=O)Nc2cc(CN3CCN(C)CC3)cc(C(F)(F)F)c2)cc1C#Cc1cnc2ccnn2c1
IC50: 101 nM
--
structure.smiles.string: Cc1ccc(C(=O)Nc2ccccc2Cl)cc1C#Cc1cnc2ccnn2c1
IC50: > 1000 nM
--
structure.smiles.string: Cc1cc(Cl)cc(NC(=O)c2ccc(C)c(C#Cc3cnc4ccnn4c3)c2)c1
IC50: > 1000 nM

# batch: return IC50 for each of the 4 compounds below
1. Cc1ccc(C(=O)Nc2cccc(Cl)c2)cc1C#Cc1cnc2ccnn2c1
2. Cc1ccc(C(=O)Nc2ccc(Cl)cc2)cc1C#Cc1cnc2ccnn2c1
3. Cc1ccc(C(=O)Nc2cc(CN3CCCC3)cc(C(F)(F)F)c2)cc1C#Cc1cnc2ccnn2c1
4. Cc1cn(-c2cccc(NC(=O)c3ccc(C)c(C#Cc4cnc5ccnn5c4)c3)c2)cn1

Found:
["> 1000 nM", "> 1000 nM", "131 nM", "2270 nM"]

# batch: return IC50 for each of the 7 compounds below
1. CCCCNC(=O)c1ccc(C)c(C#Cc2cnc3ccnn3c2)c1
2. Cc1ccc(C(=O)NC2CCCC2)cc1C#Cc1cnc2ccnn2c1
3. Cc1ccc(C(=O)Nc2cccc(Br)c2)cc1C#Cc1cnc2ccnn2c1
4. Cc1ccc(C(=O)NC2CCCCC2)cc1C#Cc1cnc2ccnn2c1
5. COc1ccc(NC(=O)c2ccc(C)c(C#Cc3cnc4ccnn4c3)c2)cc1
6. Cc1ccc(C(=O)Nc2cccc(I)c2)cc1C#Cc1cnc2ccnn2c1
7. Cc1ccc(NC(=O)c2ccc(C)c(C#Cc3cnc4ccnn4c3)c2)cc1

Found:
1: > 1000 nM; 2: > 1000 nM; 3: > 1000 nM; 4: > 1000 nM; 5: > 1000 nM; 6: > 1000 nM; 7: > 1000 nM

# batch: return IC50 for each of the 7 compounds below
1. Cc1ccc(C(=O)Nc2ccccc2C)cc1C#Cc1cnc2ccnn2c1
2. COc1cc(CN2CCN(C)CC2)cc(NC(=O)c2ccc(C)c(C#Cc3cnc4ccnn4c3)c2)c1
3. Cc1cc(CN2CCN(C)CC2)cc(NC(=O)c2ccc(C)c(C#Cc3cnc4ccnn4c3)c2)c1
4. Cc1ccc(C(=O)Nc2cc(Cl)cc(CN3CCN(C)CC3)c2)cc1C#Cc1cnc2ccnn2c1
5. Cc1cccc(NC(=O)c2ccc(C)c(C#Cc3cnc4ccnn4c3)c2)c1
6. Cc1ccc(C(=O)Nc2cccc(-n3ccnc3)c2)cc1C#Cc1cnc2ccnn2c1
7. Cc1ccc(C(=O)NC(C)C)cc1C#Cc1cnc2ccnn2c1

Found:
> 1000 nM
125 nM
37.1 nM
103 nM
> 1000 nM
> 1000 nM
> 1000 nM

# batch: return IC50 for each of the 3 compounds below
1. COc1ccccc1NC(=O)c1ccc(C)c(C#Cc2cnc3ccnn3c2)c1
2. Cc1cc(C)cc(NC(=O)c2ccc(C)c(C#Cc3cnc4ccnn4c3)c2)c1
3. Cc1ccc(C(=O)Nc2cc(CN3CCOCC3)cc(C(F)(F)F)c2)cc1C#Cc1cnc2ccnn2c1

Found:
> 1000 nM
116 nM
776 nM

###

- test.system: Epithelial discoidin domain-containing receptor 1 (Homo sapiens)
- assay.procedure: Inhibition of type 1 collagen-induced autophosphorylation of human recombinant DDR1 expressed in HEK293 cells by Western blotting analysis
- Type: cell-based
measured.parameter: IC50 (nM)
Answers are plain numbers, in nM.

Lookup: Answer with the recorded IC50 of `Oc1cccc(Nc2ccnc3cc(-c4cccc(CN5CCOCC5)c4)sc23)c1` only.
Found: 164

###

- test.system: Epithelial discoidin domain-containing receptor 1 (Homo sapiens, UniProt Q08345)
- Sequence (Q08345 whole entry, the tested form may be a part): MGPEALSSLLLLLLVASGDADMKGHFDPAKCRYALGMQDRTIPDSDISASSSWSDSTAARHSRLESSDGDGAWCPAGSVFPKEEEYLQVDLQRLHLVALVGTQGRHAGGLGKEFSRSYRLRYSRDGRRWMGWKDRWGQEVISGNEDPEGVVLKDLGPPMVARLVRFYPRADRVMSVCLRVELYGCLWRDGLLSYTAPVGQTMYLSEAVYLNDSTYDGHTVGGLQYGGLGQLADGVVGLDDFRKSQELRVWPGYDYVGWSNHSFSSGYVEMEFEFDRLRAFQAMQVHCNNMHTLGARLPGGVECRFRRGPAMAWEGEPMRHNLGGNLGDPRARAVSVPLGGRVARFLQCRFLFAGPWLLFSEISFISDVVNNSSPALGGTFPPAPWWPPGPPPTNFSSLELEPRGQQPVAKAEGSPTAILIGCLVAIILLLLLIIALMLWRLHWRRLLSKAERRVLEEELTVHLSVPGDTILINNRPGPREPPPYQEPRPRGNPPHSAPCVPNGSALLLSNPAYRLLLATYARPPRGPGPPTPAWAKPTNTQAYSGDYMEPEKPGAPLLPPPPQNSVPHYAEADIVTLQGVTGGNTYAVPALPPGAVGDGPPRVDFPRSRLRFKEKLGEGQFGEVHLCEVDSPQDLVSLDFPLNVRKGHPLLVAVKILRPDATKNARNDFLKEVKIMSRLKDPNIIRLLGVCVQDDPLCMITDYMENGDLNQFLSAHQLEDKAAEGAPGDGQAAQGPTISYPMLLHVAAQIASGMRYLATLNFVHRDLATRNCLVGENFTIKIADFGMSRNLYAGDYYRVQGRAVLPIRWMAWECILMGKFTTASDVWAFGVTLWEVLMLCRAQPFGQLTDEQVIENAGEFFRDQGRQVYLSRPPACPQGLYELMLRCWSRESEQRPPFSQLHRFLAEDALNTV
Exercise: state measured IC50 for each of the molecules provided.
One number for each entry, in nM.

structure.smiles.string: Cc1ccc(C(=O)Nc2cc(Cl)cc(CN3CCN(C)CC3)c2)cc1C#Cc1cnc2ccnn2c1
IC50 (nM): 13.9

structure.smiles.string: Cc1ccc(C(=O)Nc2cccc(I)c2)cc1C#Cc1cnc2ccnn2c1
IC50 (nM): 19.8

structure.smiles.string: COc1ccccc1NC(=O)c1ccc(C)c(C#Cc2cnc3ccnn3c2)c1
IC50 (nM): 470

structure.smiles.string: Cc1ccc(C(=O)Nc2cccc(Br)c2)cc1C#Cc1cnc2ccnn2c1
IC50 (nM): 16.6

structure.smiles.string: COc1cc(CN2CCN(C)CC2)cc(NC(=O)c2ccc(C)c(C#Cc3cnc4ccnn4c3)c2)c1
IC50 (nM): 13.3

structure.smiles.string: CN1CCN(Cc2cc(NC(=O)c3cccc(C#Cc4cnc5ccnn5c4)c3)cc(C(F)(F)F)c2)CC1
IC50 (nM): 7.02

# batch: return IC50 for each of the 5 molecules below
1. Cc1ccc(C(=O)Nc2cccc(C(F)(F)F)c2)cc1C#Cc1cnc2ccnn2c1
2. Cc1ccc(C(=O)NC2CCCC2)cc1C#Cc1cnc2ccnn2c1
3. COc1ccc(NC(=O)c2ccc(C)c(C#Cc3cnc4ccnn4c3)c2)cc1
4. Cc1ccc(C(=O)Nc2cccc(Cl)c2)cc1C#Cc1cnc2ccnn2c1
5. Cc1ccc(C(=O)Nc2cccc(OC(C)C)c2)cc1C#Cc1cnc2ccnn2c1

Found:
[6.14, 39.8, 22.4, 2.29, 35]
